Origin of measurements: PubChem BioAssay (NCATS)

- assay-system: Beta-2 adrenergic receptor (Homo sapiens) (UniProt P07550)
- Sequence (P07550 whole entry, looked up): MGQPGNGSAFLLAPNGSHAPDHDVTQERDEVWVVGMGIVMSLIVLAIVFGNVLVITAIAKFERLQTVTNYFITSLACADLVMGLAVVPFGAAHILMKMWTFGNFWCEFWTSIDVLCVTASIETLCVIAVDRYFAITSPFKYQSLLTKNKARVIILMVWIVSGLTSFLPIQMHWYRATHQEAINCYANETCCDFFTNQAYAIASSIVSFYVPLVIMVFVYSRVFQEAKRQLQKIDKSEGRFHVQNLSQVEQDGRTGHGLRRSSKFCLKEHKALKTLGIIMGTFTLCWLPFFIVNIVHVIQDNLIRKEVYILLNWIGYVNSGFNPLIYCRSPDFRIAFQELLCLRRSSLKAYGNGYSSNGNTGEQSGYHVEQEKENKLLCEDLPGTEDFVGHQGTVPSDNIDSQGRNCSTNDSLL
- measurement-description: qHTS validation assay of beta-arrestin-biased ligands of beta2-adrenergic receptor (AID 485366)
- reported-conditions: cell-based beta-arrestin recruitment to ADRB2, qHTS; series mostly up to 46.1 µM
Active and inactive are the calls of the source. Calls come from the whole dose curve; as a rule, active = well fitted curve in the direction sought with a large enough effect; inconclusive = small, poorly fitted or top-dose-only effect, or effect the other way, or another doubt; inactive = no such curve, though single readings can be large or run the other way.
measured-property: outcome

These recorded examples may help you get a feel for the data.
CCCCOC(=O)NS(=O)(=O)c1sc(CC(C)C)cc1-c1ccc(Cn2c(CC)nc3c(C)cc(C)nc32)cc1 | inactive
Nc1ncnc2c1c(-c1ccc(Oc3ccccc3)cc1)cn2C1CCCC1 | inactive
O=C(O)c1cccnc1C(=O)O | inactive
CC#CCOC(=O)c1c(C)nc2sc3c(c2c1N)CCC(O)C3 (centres undefined) | inactive
O=c1cc(-c2ccccc2)[nH]c2nc(Cl)ccc12 | inactive
O=C(O)Cc1ccc(O)c(O)c1 | inactive
N[C@@H](CCC(=O)N[C@H](CSN=O)C(=O)NCC(=O)O)C(=O)O | inactive
N=C(N)c1ccc(N)cc1 | inactive
C[C@H](NC(=O)/C(C#N)=C/c1ccc(O)c(O)c1)c1ccccc1 | inactive
O=c1cc(O)cc(/C=C/c2ccc(O)c(O)c2)o1 | inactive

Tell me measured outcome for `COC(=O)[C@H](NC(=O)c1cc(-c2ccccc2)nc2ccccc12)c1ccccc1` please.
inactive
